Kindly supply the reported Kp at 6 h values for the records listed here.
Experiment: Plasma pharmacokinetics and brain distribution after single IV, IP and oral administration
Format: in vivo
Conditions: male, C57BL/6, mouse, brain, ip, 10 mg/kg, IP 10 mg/kg, 6 hr; read-out: Brain-to-plasma ratio
Counter-ions that a name gives are not always drawn.
Numbers only.

molecule	Kp at 6 h
[2H]C([2H])([2H])Oc1ccc(Nc2nc(-c3c(C)nc4ccccn34)cs2)cc1 [Compound 15, hydrochloride]	0.38

The value of Kp at 6 h measured for the molecule [2H]C1([2H])Oc2ccc(Nc3nc(-c4c(C)nc5ccccn45)cs3)cc2O1 [Compound 17, hydrochloride] turned out to be 0.59

====

Assay: in vitro
Type: in vitro ADME, mice
Settings: mouse, plasma, pH 7.4, PPB at 4 h
Where a name gives a salt, the structure may show the parent alone.
Field: fraction unbound at 4 h, 5 μM. Provide a value for each of the compounds that follow.
Numbers only.

Worked examples, 3 compounds total:
compound	fraction unbound at 4 h, 5 μM
[2H]C([2H])([2H])Oc1ccc(Nc2nc(-c3c(C)nc4ccccn34)cs2)cc1 [Compound 15, hydrochloride]	0.1
Cc1nc2ccccn2c1-c1csc(Nc2ccc3c(c2)OC(F)(F)O3)n1 [Compound 16, hydrochloride]	0.24
[2H]C1([2H])Oc2ccc(Nc3nc(-c4c(C)nc5ccccn45)cs3)cc2O1 [Compound 17, hydrochloride]	0.25

Item: COc1c(F)cc(Nc2nc(-c3c(C)nc4ccccn34)cs2)cc1F [Compound 14, hydrochloride] | fraction unbound at 4 h, 5 μM: 0.24

====

Assay: Plasma pharmacokinetics and brain distribution after single IV, IP and oral administration
Type: in vivo
Details: male, C57BL/6, mouse, in vivo; IP 10 mg/kg, 0.08 hr; read-out: Mean brain conc.
Structures can show the parent of a compound that is named as a salt.
propertyName: concentration at 0.08 h (ng/g)
One number for each entry, in ng/g.

Recorded concentration at 0.08 h (molecule [2H]C1([2H])Oc2ccc(Nc3nc(-c4c(C)nc5ccccn45)cs3)cc2O1 [Compound 17, hydrochloride] ): 288

====

Assay: Plasma pharmacokinetics and brain distribution after single IV, IP and oral administration
Type: in vivo
Conditions: male, C57BL/6, mouse, brain/plasma, iv, 10 mg/kg, IV 10 mg/kg, 0.35 hr; read-out: Brain-to-plasma ratio
Experimental: The objective of this study was to investigate the plasma pharmacokinetics and brain distribution of Compound (14 in male C57BL/6 mice following a single intravenous, intraperitoneal and oral administration. A group of sixty-three male mice were divided into three groups (Group 1: 2 mg/kg/IV; Group 2: 10 mg/kg/IP and Group 3: 10 mg/kg/PO) with each group comprising of twenty-one mice. […]
Counter-ions that a name gives are not always drawn.
propertyName: Kp at 0.35 h

Entry Cc1nc2ccccn2c1-c1csc(Nc2ccc3c(c2)OC(F)(F)O3)n1 [Compound 16, hydrochloride] — recorded Kp at 0.35 h = 0.96

====

Test: Bi-directional Caco-2 transport assay
Assay type: in vitro ADME
Conditions: human, Caco-2, pH 7.4
Structures can show the parent of a compound that is named as a salt.
propertyName: Papp A→B at 90 min, 5 μM (×10⁻⁶ cm/s)
Give bare numbers, in ×10⁻⁶ cm/s.

compound	Papp A→B at 90 min, 5 μM [×10⁻⁶ cm/s]
Cc1nc2ccccn2c1-c1csc(Nc2ccc3c(c2)OC(F)(F)O3)n1 [Compound 16, hydrochloride]	14

Now consider a different compound.
Quick note, Papp A→B at 90 min, 5 μM for [2H]C1([2H])Oc2ccc(Nc3nc(-c4c(C)nc5ccccn45)cs3)cc2O1 [Compound 17, hydrochloride] landed at 4.9

====

Test: Plasma pharmacokinetics and brain distribution after single IV, IP and oral administration
Type: in vivo
Conditions: male, C57BL/6, mouse, in vivo, iv, 10 mg/kg, Brain concentration, individual animal
Structures can show the parent of a compound that is named as a salt.
propertyName: concentration at 24 hr
Output should be the measured figure followed by the unit it is expressed in.

Sample Cc1nc2ccccn2c1-c1csc(Nc2ccc3c(c2)OC(F)(F)O3)n1 [Compound 16, hydrochloride] ; concentration at 24 hr observed: 0 ng/g

====

I'd be grateful if you could share measured Kp at 0.35 h for these entries.
Assay: Plasma pharmacokinetics and brain distribution after single IV, IP and oral administration
Assay type: in vivo
Details: male, C57BL/6, mouse, brain, po, 10 mg/kg, PO 10 mg/kg, 0.35 hr; read-out: Brain-to-plasma ratio
Structures can show the parent of a compound that is named as a salt.
Give bare numbers.

Answered cases to consult:
molecule	observed
[2H]C([2H])([2H])Oc1ccc(Nc2nc(-c3c(C)nc4ccccn34)cs2)cc1 [Compound 15, hydrochloride]	0.41
Cc1nc2ccccn2c1-c1csc(Nc2ccc3c(c2)OC(F)(F)O3)n1 [Compound 16, hydrochloride]	1.83

# input for lookup
Recorded Kp at 0.35 h (molecule [2H]C1([2H])Oc2ccc(Nc3nc(-c4c(C)nc5ccccn45)cs3)cc2O1 [Compound 17, hydrochloride] ): 0.32

====

Assay: Plasma pharmacokinetics and brain distribution after single IV, IP and oral administration
Format: in vivo
Settings: male, C57BL/6, mouse, brain and plasma, iv, 10 mg/kg, IV 10 mg/kg, 3 hr; read-out: Brain-to-plasma ratio
Counter-ions that a name gives are not always drawn.
propertyName: Kp at 3 h
One number for each entry.

Recorded Kp at 3 h (molecule Cc1nc2ccccn2c1-c1csc(Nc2ccc3c(c2)OC(F)(F)O3)n1 [Compound 16, hydrochloride] ): 1.6

====

Assay: Plasma pharmacokinetics and brain distribution after single IV, IP and oral administration
Format: in vivo
Conditions: male, C57BL/6, mouse, in vivo, iv, 10 mg/kg, Mean plasma conc.
Counter-ions that a name gives are not always drawn.
propertyName: concentration at 24 hr (ng/mL)
Answers are plain numbers, in ng/mL.

The compound listed as Cc1nc2ccccn2c1-c1csc(Nc2ccc3c(c2)OC(F)(F)O3)n1 [Compound 16, hydrochloride] shows concentration at 24 hr equal to 0

====

Test: Bi-directional Caco-2 transport assay
Assay type: in vitro ADME
Conditions: human, Caco-2, pH 7.4
Structures can show the parent of a compound that is named as a salt.
For each record, write down the corresponding Papp B→A at 90 min, 5 μM.
Numbers only, in nm/s.

compound	propertyName	measureUnit	observed
[2H]C1([2H])Oc2ccc(Nc3nc(-c4c(C)nc5ccccn45)cs3)cc2O1 [Compound 17, hydrochloride]	Papp B→A at 90 min, 5 μM	nm/s	64

--- query ---
Recorded Papp B→A at 90 min, 5 μM (compound Cc1nc2ccccn2c1-c1csc(Nc2ccc3c(c2)OC(F)(F)O3)n1 [Compound 16, hydrochloride] ): 121

====

Test: Plasma pharmacokinetics and brain distribution after single IV, IP and oral administration
Format: in vivo
Details: male, C57BL/6, mouse, in vivo, iv, 10 mg/kg, Mean brain conc.
Procedure: The objective of this study was to investigate the plasma pharmacokinetics and brain distribution of Compound (14 in male C57BL/6 mice following a single intravenous, intraperitoneal and oral administration. A group of sixty-three male mice were divided into three groups (Group 1: 2 mg/kg/IV; Group 2: 10 mg/kg/IP and Group 3: 10 mg/kg/PO) with each group comprising of twenty-one mice. […]
Where a name gives a salt, the structure may show the parent alone.
propertyName: concentration at 12 hr (ng/g)
Answers are plain numbers, in ng/g.

Given item Cc1nc2ccccn2c1-c1csc(Nc2ccc3c(c2)OC(F)(F)O3)n1 [Compound 16, hydrochloride] , the value recorded as its concentration at 12 hr is 0

====

Experiment: in vitro
Details: mouse, microsomes, pH 7.4
Counter-ions that a name gives are not always drawn.
propertyName: half-life at 1 μM (min)
One number for each entry, in min.

molecule	measureUnit	half-life at 1 μM
Cc1nc2ccccn2c1-c1csc(Nc2ccc3c(c2)OC(F)(F)O3)n1 [Compound 16, hydrochloride]	min	15
[2H]C([2H])([2H])Oc1ccc(Nc2nc(-c3c(C)nc4ccccn34)cs2)cc1 [Compound 15, hydrochloride]	min	52
[2H]C1([2H])Oc2ccc(Nc3nc(-c4c(C)nc5ccccn45)cs3)cc2O1 [Compound 17, hydrochloride]	min	12

Shifting focus to the molecule that follows.
Lab note: measured half-life at 1 μM of COc1c(F)cc(Nc2nc(-c3c(C)nc4ccccn34)cs2)cc1F [Compound 14, hydrochloride] was 20

====

Assay: Plasma pharmacokinetics and brain distribution after single IV, IP and oral administration
Format: in vivo
Details: male, C57BL/6, mouse, in vivo, iv, 2 mg/kg, Mean plasma conc.
Structures can show the parent of a compound that is named as a salt.
propertyName: concentration at 24 h (ng/mL)
Numbers only, in ng/mL.

compound	concentration at 24 h (ng/mL)
[2H]C([2H])([2H])Oc1ccc(Nc2nc(-c3c(C)nc4ccccn34)cs2)cc1 [Compound 15, hydrochloride]	0

Shift focus to the following entry.
Lookup result for [2H]C1([2H])Oc2ccc(Nc3nc(-c4c(C)nc5ccccn45)cs3)cc2O1 [Compound 17, hydrochloride] ; measured concentration at 24 h: 0
